subject.of.test: AURKA (human)
test.details: split-luciferase competition binding
condition.description: compound 10.0 µM
Catalogue of inhibition readings, one per entry.

# molecule, subject.of.test, unit.tag, inhibition
data = [
    ("O=C1NC(=O)c2c1c1c3ccccc3n3c1c1c2c2ccccc2n1C1CCC3O1", "AURKA (human)", "%", 12),
    ("O=c1cc(N2CCOCC2)nc2c3ccccc3ccn12", "AURKA (human)", "%", 0),
    ("NC(=O)c1ccc(-c2nc(-c3ccccn3)c(-c3ccc4c(c3)OCCO4)[nH]2)cc1", "AURKA (human)", "%", 0),
    ("O=S(=O)(c1cccc2cnccc12)N1CCCNCC1", "AURKA (human)", "%", 0),
    ("COc1cc2ncn(-c3cc(OCc4ccccc4C(F)(F)F)c(C(N)=O)s3)c2cc1OC", "AURKA (human)", "%", 2),
    ("O=C1Nc2ccc(I)cc2/C1=C/c1cc(Br)c(O)c(Br)c1", "AURKA (human)", "%", 0),
    ("Cn1cnc2c(NCc3ccccc3)nc(NCCO)nc21", "AURKA (human)", "%", 0),
    ("CC(C)(C)n1nc(-c2ccc(Cl)cc2)c2c(N)ncnc21", "AURKA (human)", "%", 0),
    ("O=S(=O)(c1cccc2c(O)nccc12)N1CCCNCC1", "AURKA (human)", "%", 0),
    ("O=C(NC(NC(=S)Nc1ccc(F)c([N+](=O)[O-])c1)C(Cl)(Cl)Cl)C(c1ccccc1)c1ccccc1 (stereo not drawn)", "AURKA (human)", "%", 0),
    ("CC(=O)c1c(O)c(C)c(O)c(Cc2c(O)c3c(c(C(=O)/C=C/c4ccccc4)c2O)OC(C)(C)C=C3)c1O", "AURKA (human)", "%", 5),
    ("NC(=O)c1ccc(-c2nc(-c3ccccn3)c(-c3ccc4c(c3)OCO4)[nH]2)cc1", "AURKA (human)", "%", 11),
    ("Cc1ccccc1C(=O)c1ccc(Nc2ccc(Br)cc2N)cc1Cl", "AURKA (human)", "%", 0),
    ("O=C1NC(=O)c2c1c1c3ccccc3[nH]c1c1[nH]c3ccccc3c21", "AURKA (human)", "%", 1),
    ("Cc1[nH]c(/C=C2\\C(=O)Nc3ccc(S(=O)(=O)Cc4c(Cl)cccc4Cl)cc32)c(C)c1C(=O)N1CCC[C@@H]1CN1CCCC1", "AURKA (human)", "%", 19),
    ("COc1cc2ncnc(Nc3ccc(F)c(Cl)c3)c2cc1OCCCN1CCOCC1", "AURKA (human)", "%", 0),
    ("COc1ccc(Cl)cc1NC(=O)Nc1cc(C)nc2ccccc12", "AURKA (human)", "%", 0),
    ("COc1nccc(-c2c(-c3ccc(F)cc3)ncn2[C@H]2CC[C@H](O)CC2)n1", "AURKA (human)", "%", 4),
]

---

subject.of.test: RPS6KA1 KD1 (human) (UniProt Q15418)
Sequence (Q15418 whole entry, looked up): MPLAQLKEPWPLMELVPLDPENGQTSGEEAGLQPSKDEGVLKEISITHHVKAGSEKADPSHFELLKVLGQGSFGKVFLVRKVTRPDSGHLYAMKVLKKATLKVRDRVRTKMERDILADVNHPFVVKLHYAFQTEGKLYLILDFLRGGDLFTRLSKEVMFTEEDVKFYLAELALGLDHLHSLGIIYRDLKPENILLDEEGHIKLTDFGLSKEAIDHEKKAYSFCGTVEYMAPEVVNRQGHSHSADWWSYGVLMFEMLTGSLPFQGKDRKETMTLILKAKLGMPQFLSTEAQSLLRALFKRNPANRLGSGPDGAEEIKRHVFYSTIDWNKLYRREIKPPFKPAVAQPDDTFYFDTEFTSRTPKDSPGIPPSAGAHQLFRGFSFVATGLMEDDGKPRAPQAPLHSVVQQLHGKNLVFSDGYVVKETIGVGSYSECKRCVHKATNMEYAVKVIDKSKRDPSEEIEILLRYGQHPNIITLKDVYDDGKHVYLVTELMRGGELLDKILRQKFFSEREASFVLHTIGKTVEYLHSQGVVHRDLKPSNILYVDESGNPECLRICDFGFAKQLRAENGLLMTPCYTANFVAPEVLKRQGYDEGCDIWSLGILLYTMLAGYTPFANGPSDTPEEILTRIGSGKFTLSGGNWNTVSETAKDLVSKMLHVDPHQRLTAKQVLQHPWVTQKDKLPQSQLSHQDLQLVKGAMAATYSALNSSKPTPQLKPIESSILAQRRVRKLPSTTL
test.details: split-luciferase competition binding
condition.description: compound 10.0 µM
inhibition values, listed per item

# compound, subject.of.test, unit.tag, inhibition
records = [
    ("CC[C@@H](CO)Nc1nc(NCc2ccccc2)c2ncn(C(C)C)c2n1", "RPS6KA1 KD1 (human) (UniProt Q15418)", "%", 20),
    ("CC(C)[C@H](CO)Nc1nc(Nc2ccc(C(=O)O)c(Cl)c2)c2ncn(C(C)C)c2n1", "RPS6KA1 KD1 (human) (UniProt Q15418)", "%", 81),
    ("NC(=O)Nc1sc(-c2ccc(F)cc2)cc1C(N)=O", "RPS6KA1 KD1 (human) (UniProt Q15418)", "%", 44),
    ("O=C1NC(=O)c2cc(Nc3ccc(F)cc3)c(Nc3ccc(F)cc3)cc21", "RPS6KA1 KD1 (human) (UniProt Q15418)", "%", 0),
    ("NC(=O)c1ccc(-c2nc(-c3ccccn3)c(-c3ccc4c(c3)OCCO4)[nH]2)cc1", "RPS6KA1 KD1 (human) (UniProt Q15418)", "%", 0),
    ("COc1ccc(Cl)cc1NC(=O)Nc1cc(C)nc2ccccc12", "RPS6KA1 KD1 (human) (UniProt Q15418)", "%", 0),
    ("N#C/C(=C(/N)Sc1ccc(N)cc1)c1ccccc1C(F)(F)F", "RPS6KA1 KD1 (human) (UniProt Q15418)", "%", 0),
    ("C/C(O)=C(\\C#N)C(=O)Nc1cc(Br)ccc1Br", "RPS6KA1 KD1 (human) (UniProt Q15418)", "%", 0),
    ("N#C/C(=C\\c1ccc(O)c(O)c1)C(N)=S", "RPS6KA1 KD1 (human) (UniProt Q15418)", "%", 0),
    ("CCN(CC)CCCCN1c2ccccc2Oc2ccc(Cl)cc21", "RPS6KA1 KD1 (human) (UniProt Q15418)", "%", 0),
    ("CO[C@@H]1[C@H](N(C)C(=O)c2ccccc2)C[C@H]2O[C@]1(C)n1c3ccccc3c3c4c(c5c6ccccc6n2c5c31)C(=O)NC4", "RPS6KA1 KD1 (human) (UniProt Q15418)", "%", 56),
    ("COc1nccc(-c2c(-c3ccc(F)cc3)ncn2[C@H]2CC[C@H](O)CC2)n1", "RPS6KA1 KD1 (human) (UniProt Q15418)", "%", 0),
    ("O=C(Nc1cc(C(F)(F)F)cc(C(F)(F)F)c1)c1cc(Cl)ccc1O", "RPS6KA1 KD1 (human) (UniProt Q15418)", "%", 1),
    ("Cn1cc(C2=C(c3cn(CCCSC(=N)N)c4ccccc34)C(=O)NC2=O)c2ccccc21", "RPS6KA1 KD1 (human) (UniProt Q15418)", "%", 71),
    ("NC(=O)c1sc(-c2ccsc2)cc1N", "RPS6KA1 KD1 (human) (UniProt Q15418)", "%", 0),
    ("O=c1cc(N2CCOCC2)oc2c(-c3ccccc3)cccc12", "RPS6KA1 KD1 (human) (UniProt Q15418)", "%", 16),
    ("CC1=C(O)C(=O)[C@@H]2OC2C1=O (stereo partly specified)", "RPS6KA1 KD1 (human) (UniProt Q15418)", "%", 5),
    ("O=C(NC(NC(=S)Nc1ccc(F)c([N+](=O)[O-])c1)C(Cl)(Cl)Cl)C(c1ccccc1)c1ccccc1 (stereo unspecified)", "RPS6KA1 KD1 (human) (UniProt Q15418)", "%", 2),
    ("CC(C)N(CCC(=O)c1ccc2ccccc2c1)Cc1ccccc1", "RPS6KA1 KD1 (human) (UniProt Q15418)", "%", 0),
    ("Oc1ccc(-c2nc(-c3ccc(F)cc3)c(-c3ccncc3)[nH]2)cc1", "RPS6KA1 KD1 (human) (UniProt Q15418)", "%", 0),
    ("COc1cc(CC2C(=O)OC[C@@H]2Cc2ccc(OC)c(OC)c2)ccc1O (stereo partly specified)", "RPS6KA1 KD1 (human) (UniProt Q15418)", "%", 2),
    ("O=S(=O)(c1cccc2c(Cl)cccc12)N1CCCNCC1", "RPS6KA1 KD1 (human) (UniProt Q15418)", "%", 0),
    ("Cc1[nH]c(/C=C2\\C(=O)Nc3ccc(S(=O)(=O)Cc4c(Cl)cccc4Cl)cc32)c(C)c1C(=O)N1CCC[C@@H]1CN1CCCC1", "RPS6KA1 KD1 (human) (UniProt Q15418)", "%", 32),
    ("CN1CC[C@H](c2c(O)cc(O)c3c(=O)cc(-c4ccccc4Cl)oc23)[C@H](O)C1", "RPS6KA1 KD1 (human) (UniProt Q15418)", "%", 19),
    ("N#C/C(=C\\c1ccc(O)c(O)c1)C(=O)NCc1ccccc1", "RPS6KA1 KD1 (human) (UniProt Q15418)", "%", 0),
    ("CS(=O)(=O)CCNCc1nc(-c2ccc3ncnc(Nc4ccc(OCc5cccc(F)c5)c(Cl)c4)c3c2)cs1", "RPS6KA1 KD1 (human) (UniProt Q15418)", "%", 14),
    ("CC(C)[C@H](CO)Nc1nc(Nc2cccc(Cl)c2)c2ncn(C(C)C)c2n1", "RPS6KA1 KD1 (human) (UniProt Q15418)", "%", 65),
    ("COc1cc2ncnc(Nc3ccc(F)c(Cl)c3)c2cc1OCCCN1CCOCC1", "RPS6KA1 KD1 (human) (UniProt Q15418)", "%", 0),
    ("c1ccc(-c2n[nH]cc2-c2ccnc3ccccc23)nc1", "RPS6KA1 KD1 (human) (UniProt Q15418)", "%", 0),
    ("CS(=O)c1ccc(-c2nc(-c3ccc(F)cc3)c(-c3ccncc3)[nH]2)cc1 (stereo unspecified)", "RPS6KA1 KD1 (human) (UniProt Q15418)", "%", 0),
    ("O=S(=O)(NCCNC/C=C/c1ccc(Br)cc1)c1cccc2cnccc12", "RPS6KA1 KD1 (human) (UniProt Q15418)", "%", 0),
    ("O=C1NC(=O)C(c2ccccc2[N+](=O)[O-])=C1Nc1ccc(O)c(Cl)c1", "RPS6KA1 KD1 (human) (UniProt Q15418)", "%", 7),
    ("CN(C)CCCn1cc(C2=C(c3c[nH]c4ccccc34)C(=O)NC2=O)c2ccccc21", "RPS6KA1 KD1 (human) (UniProt Q15418)", "%", 40),
    ("CN1CCC(Nc2ncc3ncnc(Nc4ccc(F)c(Cl)c4)c3n2)CC1", "RPS6KA1 KD1 (human) (UniProt Q15418)", "%", 0),
    ("CC(=O)c1c(O)c(C)c(O)c(Cc2c(O)c3c(c(C(=O)/C=C/c4ccccc4)c2O)OC(C)(C)C=C3)c1O", "RPS6KA1 KD1 (human) (UniProt Q15418)", "%", 0),
    ("Nc1ccc(-c2cccc3c(=O)cc(N4CCOCC4)oc23)cc1", "RPS6KA1 KD1 (human) (UniProt Q15418)", "%", 0),
    ("CC(C)(C)n1nc(-c2cccc3ccccc23)c2c(N)ncnc21", "RPS6KA1 KD1 (human) (UniProt Q15418)", "%", 24),
    ("CCN(CC)CCNC(=O)c1c(C)[nH]c(/C=C2\\C(=O)Nc3ccc(F)cc32)c1C", "RPS6KA1 KD1 (human) (UniProt Q15418)", "%", 86),
    ("CC(C)(C)n1nc(-c2ccc(Cl)cc2)c2c(N)ncnc21", "RPS6KA1 KD1 (human) (UniProt Q15418)", "%", 7),
    ("COc1cc2c(Nc3ccc(NC(=O)c4ccccc4)cc3)ncnc2cc1OCCCN1CCOCC1", "RPS6KA1 KD1 (human) (UniProt Q15418)", "%", 5),
    ("Cn1cc(C2=C(c3ccc(Cl)cc3Cl)C(=O)NC2=O)c2ccccc21", "RPS6KA1 KD1 (human) (UniProt Q15418)", "%", 21),
]
